Recorded measurements of log10 IC50, one per entry
target desc: HCV NS3-4A serine protease (full-length NS3-4A protein, genotype 1a, strain HCV-1) (Hepatitis C virus genotype 1a, UniProt P26664)
Construct: using the full-length NS3-4A protein (genotype 1a, strain HCV-1)
Sequence (P26664 1658-1711): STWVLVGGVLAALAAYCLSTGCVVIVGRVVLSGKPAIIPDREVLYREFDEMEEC
Sequence (P26664 1027-1657): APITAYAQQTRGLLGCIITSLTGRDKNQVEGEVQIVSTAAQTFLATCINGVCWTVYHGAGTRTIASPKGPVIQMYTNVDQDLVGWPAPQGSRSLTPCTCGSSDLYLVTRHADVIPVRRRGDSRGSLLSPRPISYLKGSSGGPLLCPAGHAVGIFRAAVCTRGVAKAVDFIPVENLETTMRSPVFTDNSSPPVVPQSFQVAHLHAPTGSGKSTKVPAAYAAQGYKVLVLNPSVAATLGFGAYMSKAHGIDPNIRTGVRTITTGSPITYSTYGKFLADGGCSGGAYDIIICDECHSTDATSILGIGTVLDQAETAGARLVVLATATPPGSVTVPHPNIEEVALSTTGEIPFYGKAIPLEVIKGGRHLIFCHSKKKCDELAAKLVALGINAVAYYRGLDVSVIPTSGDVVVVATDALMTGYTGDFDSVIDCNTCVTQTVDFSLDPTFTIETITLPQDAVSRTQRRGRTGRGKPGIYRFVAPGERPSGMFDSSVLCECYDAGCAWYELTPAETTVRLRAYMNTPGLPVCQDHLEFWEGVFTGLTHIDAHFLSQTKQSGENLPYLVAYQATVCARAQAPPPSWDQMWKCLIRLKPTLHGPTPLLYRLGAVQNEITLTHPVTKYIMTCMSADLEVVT
test: HCV NS3-4A protease assay
Type: biochemical
measurement parameters: read-out: Protease IC50
endpoint name: log10 IC50 (log10 of the value in nM)

>  <structure as smiles>
C=C[C@@H]1C[C@]1(NC(=O)[C@@H]1C[C@@]2(CN1C(=O)[C@@H](NC(=O)N[C@H](CN1CCN(C)CC1)C(C)(C)C)C(C)(C)C)C(C)(C)C21CCC1)C(=O)NS(=O)(=O)C1CC1

>  <endpoint name>
log10 IC50

>  <observed result>
1.00

$$$$
>  <structure as smiles>
C=C[C@@H]1C[C@]1(NC(=O)[C@@H]1C[C@@]2(CN1C(=O)[C@@H](NC(=O)N[C@H](CN(C)S(=O)(=O)c1ccccn1)C(C)(C)C)C(C)(C)C)C(C)(C)C21CCC1)C(=O)NS(=O)(=O)C1CC1

>  <endpoint name>
log10 IC50

>  <observed result>
0.48

$$$$
>  <structure as smiles>
C=C[C@@H]1C[C@]1(NC(=O)[C@@H]1C[C@@]2(CN1C(=O)[C@@H](NC(=O)[C@@H](NS(=O)(=O)c1c(C)noc1C)C(C)(C)C)C(C)(C)C)C(C)(C)C21CCC1)C(=O)NS(=O)(=O)C1CC1

>  <endpoint name>
log10 IC50

>  <observed result>
2.40

$$$$
>  <structure as smiles>
C=C[C@@H]1C[C@]1(NC(=O)[C@@H]1C[C@@]2(CN1C(=O)[C@@H](NC(=O)N[C@H](CC(=O)N(C)C)C(C)(C)C)C(C)(C)C)C(C)(C)C21CCC1)C(=O)NS(=O)(=O)C1CC1

>  <endpoint name>
log10 IC50

>  <observed result>
3.15

$$$$
>  <structure as smiles>
C=C[C@@H]1C[C@]1(NC(=O)[C@@H]1C[C@@]2(CN1C(=O)[C@@H](NC(=O)OC(C)(C)C)C(C)C)C(C)(C)C21CCC1)C(=O)NS(=O)(=O)C1CC1

>  <endpoint name>
log10 IC50

>  <observed result>
2.00

$$$$
>  <structure as smiles>
C=C[C@@H]1C[C@]1(NC(=O)[C@@H]1C[C@@]2(CN1C(=O)[C@@H](NC(=O)[C@@H](CC(=O)N(C)C)C(C)(C)C)C(C)(C)C)C(C)(C)C21CCC1)C(=O)NS(=O)(=O)C1CC1

>  <endpoint name>
log10 IC50

>  <observed result>
1.85

$$$$
>  <structure as smiles>
C=C[C@@H]1C[C@]1(NC(=O)[C@@H]1C[C@@]2(CN1C(=O)[C@@H](NC(=O)[C@@H](CC(=O)OC(C)(C)C)C(C)(C)C)C(C)(C)C)C(C)(C)C21CCC1)C(=O)NS(=O)(=O)C1CC1

>  <endpoint name>
log10 IC50

>  <observed result>
1.81

$$$$
>  <structure as smiles>
C=C[C@@H]1C[C@]1(NC(=O)[C@@H]1C[C@@]2(CN1C(=O)[C@@H](NC(=O)c1coc(CN(C)C)n1)C(C)(C)C)C(C)(C)C21CCC1)C(=O)NS(=O)(=O)C1CC1

>  <endpoint name>
log10 IC50

>  <observed result>
2.60

$$$$
>  <structure as smiles>
C=C[C@@H]1C[C@]1(NC(=O)[C@@H]1C[C@@]2(CN1C(=O)[C@@H](NC(=O)O[C@H](C(=O)N(C)C)C(C)(C)C)C(C)(C)C)C(C)(C)C21CCC1)C(=O)NS(=O)(=O)C1CC1

>  <endpoint name>
log10 IC50

>  <observed result>
2.15

$$$$
